Origin of values: patent US9957263B2

Target: BRD4 (BDI_K57-E168) (Homo sapiens (Human))
Assay: TR-FRET bromodomain binding assay, BRD4 first bromodomain
Conditions: His-tagged BD1, Alexa647-labeled probe 100 nM
pKi: −log10 of the molar value.
Please use YES whenever pKi is not below 8, and NO whenever it is.

Recorded results for 4 molecules are shown here.
| molecule | answer.label |
| --- | --- |
| Cn1cc(-c2cc(S(C)(=O)=O)ccc2Oc2ccc(F)cc2F)c2cc(CN3CCCN(c4ccccn4)CC3)[nH]c2c1=O [Example 126] | NO |
| CCNC(=O)c1cc2c(-c3ccc(C(=O)N(CCN(C)C)c4ccnc(F)c4)cc3Oc3c(C)cccc3C)cn(C)c(=O)c2[nH]1 [Example 185] | NO |
| Cn1cc(-c2cc(S(C)(=O)=O)ccc2Oc2cccc(NCc3ccccc3F)c2)c2cc[nH]c2c1=O [Example 67] | YES |
| Cc1cc(F)ccc1S(=O)(=O)Nc1cccc(Oc2ccc(S(C)(=O)=O)cc2-c2cn(C)c(=O)c3[nH]ccc23)c1 [Example 52] | YES |

Query string: Does the reported pKi for COc1ccc(S(=O)(=O)N2CCC(Nc3ccc(S(C)(=O)=O)cc3-c3cn(C)c(=O)c4[nH]ccc34)CC2)cc1 [Example 104] fall at or above the 8 mark?
Result string: YES

###

Target: BRD4 (BDI_K57-E168) (Homo sapiens (Human))
Experiment: TR-FRET bromodomain binding assay, BRD4 first bromodomain
Conditions: His-tagged BD1, Alexa647-labeled probe 100 nM
pKi: −log10 of the molar value.
Output met for pKi not less than 8; output not met otherwise.

Consider the following illustrative entries.
| compound | answer.label |
| --- | --- |
| CCS(=O)(=O)Nc1ccc(Oc2ccc(F)cc2F)c(-c2cn(C)c(=O)c3[nH]c(C#CCOC)cc23)c1 [Example 163] | met |
| Cn1cc(-c2cc(S(C)(=O)=O)ccc2NC2CCN(S(=O)(=O)c3ccccc3)CC2)c2cc[nH]c2c1=O [Example 84] | met |
| CCNC(=O)c1cc2c(-c3cc(S(=O)(=O)CC)ccc3Oc3c(C)cccc3NCC3CCOC3)cn(C)c(=O)c2[nH]1 (stereo not shown) [Example 133] | not met |
| CCS(=O)(=O)c1ccc(OCC2CC2(F)F)c(-c2cn(C)c(=O)c3[nH]c(C#CCN(C)C)cc23)c1 (stereo not shown) [Example 63] | met |

Now, please, on to the next compound.
Query string: Threshold query (pKi >= 8) on CCS(=O)(=O)Nc1cc(-c2cn(C)c(=O)c3[nH]ccc23)c(Oc2ccc(F)cc2F)cc1C(=O)N(C)C [Example 10]
Result string: not met

###

Biological target: BRD4 (BDII_E352-M457) (Homo sapiens (Human), UniProt O60885)
Assay: TR-FRET bromodomain binding assay, BRD4 second bromodomain
Settings: His-tagged BD2, Alexa647-labeled probe 30 nM
assay.metric: pKi
API: returns pKi as number; meaning -log10 of concentration in mol/L.

Below are worked cases with known answers.
| molecule | system.under.test | pKi |
| --- | --- | --- |
| CCNC(=O)c1cc2c(-c3ccc(C(=O)N(CCN(C)C)c4ccccc4)cc3Oc3c(C)cccc3C)cn(C)c(=O)c2[nH]1 | BRD4 (BDII_E352-M457) (Homo sapiens (Human), UniProt O60885) | 8.08 |
| Cc1cc(F)ccc1S(=O)(=O)Nc1cccc(Oc2ccc(S(C)(=O)=O)cc2-c2cn(C)c(=O)c3[nH]ccc23)c1 | BRD4 (BDII_E352-M457) (Homo sapiens (Human), UniProt O60885) | 8.96 |
| Cn1cc(-c2cc(S(C)(=O)=O)ccc2Oc2cccc(C(=O)N3CCN(CCO)CC3)c2)c2cc[nH]c2c1=O | BRD4 (BDII_E352-M457) (Homo sapiens (Human), UniProt O60885) | 7.82 |
| CCNC(=O)c1cc2c(-c3ccc(C(=O)N(CCN4CCSCC4)c4ccc(Cl)c(Cl)c4)cc3Oc3c(C)cccc3C)cn(C)c(=O)c2[nH]1 | BRD4 (BDII_E352-M457) (Homo sapiens (Human), UniProt O60885) | 7.05 |
| Cc1noc(C2CCCN2Cc2cc3c(-c4cc(S(C)(=O)=O)ccc4Oc4ccc(F)cc4F)cn(C)c(=O)c3[nH]2)n1 (centres unmarked) | BRD4 (BDII_E352-M457) (Homo sapiens (Human), UniProt O60885) | 6.78 |

Query string: # return pKi of "CCS(=O)(=O)c1ccc(Oc2ccc(Cl)cc2CCCN2CCOCC2)c(-c2cn(C)c(=O)c3[nH]ccc23)c1" (system: BRD4 (BDII_E352-M457) (Homo sapiens (Human), UniProt O60885))
Result string: 8.46

Query string: Enter pKi (test system BRD4 (BDII_E352-M457) (Homo sapiens (Human), UniProt O60885)) for "Cn1cc(-c2cc(S(C)(=O)=O)ccc2NC2CCN(C(=O)C3(C(N)=O)CC3)CC2)c2cc[nH]c2c1=O"
Result string: 7.62

Query string: Please tell me the measured pKi for "CSCCCN[C@H]1CC[C@H](Nc2ccc(S(C)(=O)=O)cc2-c2cn(C)c(=O)c3[nH]ccc23)CC1" ; system: BRD4 (BDII_E352-M457) (Homo sapiens (Human), UniProt O60885).
Result string: 8.00

Query string: Please tell me the measured pKi for "CCNC(=O)c1cc2c(-c3ccc(C(=O)N(CC#N)c4cccc(C(F)(F)F)c4)cc3Oc3c(C)cccc3C)cn(C)c(=O)c2[nH]1" ; system: BRD4 (BDII_E352-M457) (Homo sapiens (Human), UniProt O60885).
Result string: 7.42
